# ASSAYED_TARGET: Solute carrier family 2, facilitated glucose transporter member 1 (Homo sapiens)
# PROCEDURE_SUMMARY: ST_JUDE_LEISH: Cytotoxicity at 2uM final concentration against transgenic Leishmania Mexicana promastigotes LmGLUT1 that are glucose transport deficient and complemented with the human glucose transporter GLUT1. Activity is measured by DNA content using SYBR green in vitro
# Type: functional
Outcome: True for inhibition of at least 6%; False for anything lower.

COMPOUND	CLASS_NAME
COC(=O)/C=C/C(=O)N[C@@H]1CC[C@@]2(O)[C@H]3Cc4ccc(O)c5c4[C@@]2(CCN3CC2CC2)[C@H]1O5	False
CC(=O)N(Cc1ccc(-c2ccc(CNCCc3ccccc3)cc2)cc1)C1CCN(Cc2ccccc2)CC1	False
CCCCCCCN1C2CCC1CC(CCOc1ccnc3ccc(OC)cc13)C2 (stereo unspecified)	True
O=C(c1cc(C(F)(F)F)cc(C(F)(F)F)c1)N1CCC(CCN2CCC3(CC2)C(=O)NCN3c2ccccc2)CC1Cc1ccc(Cl)c(Cl)c1 (stereo unspecified)	True
COC(=O)c1ccc(CC(C)NCC(O)c2cccc(Oc3cccc(C(F)(F)F)c3)c2)cc1 (stereo unspecified)	True
COc1ccc(F)cc1-c1csc(N(c2ccc(F)cc2)C2CCNCC2)n1	False

* * *

# ASSAYED_TARGET: Hexose transporter 1 (Plasmodium falciparum)
# PROCEDURE_SUMMARY: ST_JUDE_LEISH: Cytotoxicity at 2uM final concentration against transgenic Leishmania Mexicana promastigotes LmPfHT that are glucose transport deficient and complemented with the Plasmodium falciparum hexose transporter. Activity is measured by DNA content using SYBR green in vitro
# Format: functional
MEASURED_PARAMETER: inhibition (%)

MOLECULE	MEASURED_PARAMETER	ASSAY_RESULT
COc1cccc(O)c1CNCC(O)c1cccc(C(F)(F)F)c1 (stereo unspecified)	inhibition	0.5
COc1ccc(OC)c(C=CC(=O)NC2CCC(CN3CCC(c4c[nH]c5ccccc45)CC3)CC2)c1 (stereo unspecified)	inhibition	-0.24
CCN(CC)CCOC(=O)C(OC)(c1ccccc1)c1ccccc1	inhibition	3
C=C[C@H]1CN2CC[C@H]1C[C@H]2[C@H](O)c1ccnc2ccccc12	inhibition	1.87
CC[C@H]1CN2CC[C@@H]1C[C@H]2[C@H](O)c1cc(N2CCC(C(N)=O)CC2)nc2ccc(OC)cc12	inhibition	7.92
O=C(Nc1ccc(Oc2ccccc2)cc1)NC1CCC(CN2CCC(c3c[nH]c4ccccc34)CC2)CC1 (stereo unspecified)	inhibition	0.51
CCCCCCCN1C2CCC1CC(CCOc1ccnc3ccc(OC)cc13)C2 (stereo unspecified)	inhibition	8.68
O=C(/C=C/c1cc(C(F)(F)F)ccc1F)NC1CCC(CN2CCC(c3c[nH]c4ccccc34)CC2)CC1 (stereo unspecified)	inhibition	5.67
CC(=O)Nc1ccc(CN2CCC(N(C)c3ccc(NC(=O)c4cccc(C)c4)cc3)CC2)cc1	inhibition	10.9
O=C(NC1CCC(CN2CCC(c3c[nH]c4ccccc34)CC2)CC1)NC12CC3CC(CC(C3)C1)C2 (stereo unspecified)	inhibition	3.16
COc1cc(C(=O)NC2CCC(CN3CCC(c4c[nH]c5ccccc45)CC3)CC2)cc(Cl)n1 (stereo unspecified)	inhibition	-0.71

* * *

# ASSAYED_TARGET: Glucose transporter (Leishmania mexicana) (UniProt O61059)
# PROCEDURE_SUMMARY: ST_JUDE_LEISH: Cytotoxicity at 2uM final concentration against transgenic Leishmania Mexicana promastigotes LmGT2 that are glucose transport deficient and complemented with the L. Mexicana glucose transporter 2. Activity is measured by DNA content using SYBR green in vitro
# Format: functional
MEASURED_PARAMETER: inhibition

COMPOUND	ASSAY_RESULT
O=C(NC1CCC(CN2CCC(c3c[nH]c4ccccc34)CC2)CC1)c1cc2cccc([N+](=O)[O-])c2[nH]1 (centres undefined)	-0.94%
Cc1ccc(CC(C)NCC(O)c2cccc(Br)c2)cc1 (centres undefined)	1.21%
CCCCCc1cc(O)c2c3c(c(=O)oc2c1)CN(C)CC3	1.87%
COc1ccc(C[C@H]2NC[C@H](O)[C@H]2OC(C)=O)cc1	92.1%
O=C(c1cc(C(F)(F)F)cc(C(F)(F)F)c1)N1CCC(CCN2CCC3(CC2)C(=O)NCN3c2ccccc2)CC1Cc1ccc(Cl)c(Cl)c1 (centres undefined)	6.06%
CCOC(C(=O)OCC1CCCN1C)(c1ccccc1)c1ccccc1 (centres undefined)	0.01%
Oc1ccc(CN2CCN(CCOC(c3ccccc3)c3ccc(Cl)cc3)CC2)cc1Cl (centres undefined)	-3.12%
O=C(CCCCCc1ccccc1)NC1CCC(CN2CCC(c3c[nH]c4ccccc34)CC2)CC1 (centres undefined)	-1.29%
CCCCCCCn1c(=O)c(C(=O)Nc2c(C)cccc2C)c(O)c2ccccc21	3.35%
Cc1cc(N(C)C2CCN(C)CC2)nc(Nc2ccc(Br)cc2)n1	1.93%
CN1CCC(N(C)c2nccc(N3CCN(Cc4cncn4Cc4ccccc4)CC3)n2)CC1	10.8%
CN1CC=C(c2c[nH]c3ccc(Br)cc23)CC1	-0.72%
COc1ccc(CC(C)NCC(O)c2cccc(C(F)(F)F)c2)cc1 (centres undefined)	8.93%
COC(=O)/C=C/c1ccc(CC(C)NCC(O)c2cccc(Br)c2)cc1 (centres undefined)	0.91%
Cc1cc(C(=O)NC2CCN(CC3(c4ccc(Cl)cc4)CCC3)CC2)on1	0.13%
O=C(NC1CCC(N2CCC3(CC2)C(=O)NCN3c2ccccc2)CC1)c1cc2ccccc2[nH]1 (centres undefined)	0.13%
C[C@H](Cc1ccc(OCCCCCCOc2ccccc2)cc1)NC[C@@H](O)c1cc(Br)no1	-0.07%
C=C[C@H]1CN2CC[C@H]1C[C@H]2[C@H](O)c1cc(/C=C/c2ccc(F)cc2)nc2ccc(OC)cc12	2.4%
CC[C@H]1CN2CC[C@@H]1C[C@@H]2[C@@H](O)c1cc(-c2ccc(F)cc2)nc2ccc(OC)cc12	5.29%
